Data origin: patent US10023559B2

Entries with reported Ki on mouse TAAR1 (Mus musculus (Mouse))
Sequence (Q923Y8 whole entry): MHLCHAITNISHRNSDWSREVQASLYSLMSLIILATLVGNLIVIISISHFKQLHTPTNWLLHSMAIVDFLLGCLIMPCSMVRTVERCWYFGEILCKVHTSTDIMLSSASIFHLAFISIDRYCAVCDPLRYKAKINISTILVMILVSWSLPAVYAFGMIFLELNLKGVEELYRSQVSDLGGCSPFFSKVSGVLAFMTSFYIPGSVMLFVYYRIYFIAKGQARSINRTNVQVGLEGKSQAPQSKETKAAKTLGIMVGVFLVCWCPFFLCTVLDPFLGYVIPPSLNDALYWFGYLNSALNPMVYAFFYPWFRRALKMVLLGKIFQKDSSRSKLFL
measurement_kind: Ki (nM)

molecule=O=C(Nc1ccc(C=C2CNC2)cc1)Nc1cccc(Cl)c1 unit_abbreviation=nM recorded_number=3.8
molecule=FC(F)(F)c1nccc(Nc2ccc(OC3CNC3)cc2)n1 unit_abbreviation=nM recorded_number=55
molecule=O=C(Nc1ccc(OC2CNC2)cc1)c1cnc(C(F)(F)F)nc1 unit_abbreviation=nM recorded_number=19.5
molecule=O=C(Nc1ccc(OC2CNC2)cc1F)c1cnc(C(F)(F)F)nc1 unit_abbreviation=nM recorded_number=62.8
molecule=COc1ccc(NC(=O)Nc2ccc(CC3(F)CNC3)cc2)cc1 unit_abbreviation=nM recorded_number=1.9
molecule=Cc1ncc(C(=O)Nc2ccc(OC3CNC3)cc2)cn1 unit_abbreviation=nM recorded_number=74.6
molecule=CCc1n[nH]c(C(=O)Nc2cc(F)c(C=C3CNC3)c(F)c2)c1C unit_abbreviation=nM recorded_number=16.7
molecule="O=C(Nc1ccccc1)c1ccc(OC2CNC2)cc1 [Example 20, 4-(azetidin-3-yloxy)-N-phenyl-benzamide]" unit_abbreviation=nM recorded_number=478
molecule=O=C(Nc1ccc(OC2CNC2)cc1)c1cnc(OCC(F)(F)F)nc1 unit_abbreviation=nM recorded_number=12.8

###

Entries with reported pKi on mouse TAAR1 (Mus musculus (Mouse))
pKi: −log10 of the molar value.
measurement_kind: pKi

compound="O=C(Nc1ccc(Cl)nc1)c1ccc(OC2CNC2)cc1Cl [Example 53]" assay_system="mouse TAAR1 (Mus musculus (Mouse))" measurement_kind=pKi recorded_number=7.26
compound="O=C(Nc1ccc(OC2CNC2)cc1)c1cc(C(F)(F)F)n[nH]1 [Example 24]" assay_system="mouse TAAR1 (Mus musculus (Mouse))" measurement_kind=pKi recorded_number=7.48
compound="F[C@H]1CN[C@@H]1Cc1ccccc1 [Example 93, (2R,3S)-2-benzyl-3-fluoroazetidine]" assay_system="mouse TAAR1 (Mus musculus (Mouse))" measurement_kind=pKi recorded_number=5.89
compound="Cc1cc(C(=O)Nc2cc(F)c(C=C3CNC3)c(F)c2)nc(C(F)(F)F)n1 [Example 82]" assay_system="mouse TAAR1 (Mus musculus (Mouse))" measurement_kind=pKi recorded_number=7.56
compound="Cn1nc(C(F)(F)F)c(Cl)c1C(=O)Nc1ccc(OC2CNC2)cc1 [Example 29]" assay_system="mouse TAAR1 (Mus musculus (Mouse))" measurement_kind=pKi recorded_number=7.54
compound="O=C(Nc1ccc(OC2CNC2)cc1)c1[nH]nc(C2CC2)c1F [Example 42]" assay_system="mouse TAAR1 (Mus musculus (Mouse))" measurement_kind=pKi recorded_number=7.82
compound="O=C(Nc1ccc(CC2CNC2)cc1)Nc1cccc(Cl)c1 [Example 115]" assay_system="mouse TAAR1 (Mus musculus (Mouse))" measurement_kind=pKi recorded_number=7.57
compound="COc1cc(C(=O)Nc2ccc(CC3(F)CNC3)cc2)nc(C(F)(F)F)n1 [Example 68]" assay_system="mouse TAAR1 (Mus musculus (Mouse))" measurement_kind=pKi recorded_number=8.19
compound="F[C@H]1CN[C@H]1Cc1ccccc1 [Example 90, (2S,3S)-2-benzyl-3-fluoroazetidine]" assay_system="mouse TAAR1 (Mus musculus (Mouse))" measurement_kind=pKi recorded_number=5.36
compound="CO[C@@H]1CN[C@@H]1Cc1ccccc1 [Example 100, (2R,3R)-2-benzyl-3-methoxyazetidine]" assay_system="mouse TAAR1 (Mus musculus (Mouse))" measurement_kind=pKi recorded_number=6.50
compound="O=C(Nc1ccc(CC2(F)CNC2)cc1)c1cnc(OCC(F)(F)F)nc1 [Example 69]" assay_system="mouse TAAR1 (Mus musculus (Mouse))" measurement_kind=pKi recorded_number=7.38
compound="O=C(Nc1ccc(C[C@@H]2NC[C@@H]2F)cc1)c1ccnc(C(F)(F)F)c1 [Example 104]" assay_system="mouse TAAR1 (Mus musculus (Mouse))" measurement_kind=pKi recorded_number=7.97
compound="O=C(Nc1ccc(OC2CNC2)cc1)c1[nH]nc(C2CC2)c1Br [Example 31]" assay_system="mouse TAAR1 (Mus musculus (Mouse))" measurement_kind=pKi recorded_number=8.44
compound="O=C(Nc1ccc(OC2CNC2)c(F)c1)c1[nH]nc(C2CC2)c1Cl [Example 25]" assay_system="mouse TAAR1 (Mus musculus (Mouse))" measurement_kind=pKi recorded_number=8.52
compound="CCc1n[nH]c(C(=O)Nc2ccc(OC3CNC3)cc2)c1C [Example 11]" assay_system="mouse TAAR1 (Mus musculus (Mouse))" measurement_kind=pKi recorded_number=7.19
compound="c1ccc(C[C@H]2CCN2)cc1 [Example 89, (S)-2-benzylazetidine]" assay_system="mouse TAAR1 (Mus musculus (Mouse))" measurement_kind=pKi recorded_number=5.82
compound="CCOc1ccc(C(=O)Nc2ccc(CC3(F)CNC3)cc2)nn1 [Example 67]" assay_system="mouse TAAR1 (Mus musculus (Mouse))" measurement_kind=pKi recorded_number=7.53
compound="O=C(Nc1ccc(C[C@@H]2CCN2)cc1)c1ccc(Cl)nc1 [Example 79]" assay_system="mouse TAAR1 (Mus musculus (Mouse))" measurement_kind=pKi recorded_number=8.00
compound="CN(c1ccc(NC(=O)c2ccnc(C(F)(F)F)c2)cc1)C1CNC1 [Example 2]" assay_system="mouse TAAR1 (Mus musculus (Mouse))" measurement_kind=pKi recorded_number=7.57
compound="COc1ccc(C[C@H]2NC[C@H]2F)cc1 [Example 98]" assay_system="mouse TAAR1 (Mus musculus (Mouse))" measurement_kind=pKi recorded_number=6.70
compound="O=C(Nc1ccc(OC2CNC2)cc1)c1[nH]nc(C(F)(F)F)c1Cl [Example 40]" assay_system="mouse TAAR1 (Mus musculus (Mouse))" measurement_kind=pKi recorded_number=8.55
compound="Brc1ccc(C=C2CNC2)cc1 [Example 50, 3-[(4-bromophenyl)methylene]azetidine]" assay_system="mouse TAAR1 (Mus musculus (Mouse))" measurement_kind=pKi recorded_number=6.10
compound="COC1(Cc2ccc(NC(=O)c3ccc(Cl)nc3)cc2)CNC1 [Example 73]" assay_system="mouse TAAR1 (Mus musculus (Mouse))" measurement_kind=pKi recorded_number=7.87
compound="O=C(Nc1ccc(CC2(F)CNC2)cc1)c1ccc(Cl)cc1 [Example 52]" assay_system="mouse TAAR1 (Mus musculus (Mouse))" measurement_kind=pKi recorded_number=9.05
compound="COc1cc(C(=O)Nc2ccc(C[C@@H]3NC[C@@H]3F)cc2)ccn1 [Example 127]" assay_system="mouse TAAR1 (Mus musculus (Mouse))" measurement_kind=pKi recorded_number=8.42
compound="O=C(Nc1ccc(OC2CNC2)cc1)c1cnc(C2CC2)nc1 [Example 14]" assay_system="mouse TAAR1 (Mus musculus (Mouse))" measurement_kind=pKi recorded_number=7.83
compound="CO[C@@H]1CN[C@H]1Cc1ccccc1 [Example 95, (2S,3R)-2-benzyl-3-methoxyazetidine]" assay_system="mouse TAAR1 (Mus musculus (Mouse))" measurement_kind=pKi recorded_number=5.56
compound="O=C(Nc1ccc(OC2CNC2)cc1)Nc1cccc(Cl)c1 [Example 109]" assay_system="mouse TAAR1 (Mus musculus (Mouse))" measurement_kind=pKi recorded_number=8.34
compound="O=C(Nc1ccc(OC2CNC2)cc1F)c1[nH]nc(C2CC2)c1Cl [Example 36]" assay_system="mouse TAAR1 (Mus musculus (Mouse))" measurement_kind=pKi recorded_number=7.86
compound="F[C@@H]1CN[C@H]1Cc1ccccc1 [Example 91, (2S,3R)-2-benzyl-3-fluoroazetidine]" assay_system="mouse TAAR1 (Mus musculus (Mouse))" measurement_kind=pKi recorded_number=5.97
compound="O=C(Nc1ccc(OC2CNC2)cc1)c1cc(C2CC2)n[nH]1 [Example 10]" assay_system="mouse TAAR1 (Mus musculus (Mouse))" measurement_kind=pKi recorded_number=6.38
compound="O=C(Nc1ccc(C=C2CNC2)c(F)c1)c1ccc(Cl)nc1 [Example 86]" assay_system="mouse TAAR1 (Mus musculus (Mouse))" measurement_kind=pKi recorded_number=8.74
compound="O=C(Nc1ccc(C[C@H]2CCN2)cc1)c1ccc(Cl)nc1 [Example 81]" assay_system="mouse TAAR1 (Mus musculus (Mouse))" measurement_kind=pKi recorded_number=8.39
compound="CO[C@H]1CN[C@H]1Cc1ccccc1 [Example 94, (2S,3S)-2-benzyl-3-methoxyazetidine]" assay_system="mouse TAAR1 (Mus musculus (Mouse))" measurement_kind=pKi recorded_number=5.39
compound="O=C(Nc1ccc(C[C@@H]2CCN2)cc1)c1ccc(Cl)cc1 [Example 72]" assay_system="mouse TAAR1 (Mus musculus (Mouse))" measurement_kind=pKi recorded_number=8.41
compound="CCc1n[nH]c(C(=O)Nc2ccc(C[C@@H]3NC[C@@H]3F)cc2)c1C [Example 102]" assay_system="mouse TAAR1 (Mus musculus (Mouse))" measurement_kind=pKi recorded_number=7.83

###

- assay_system: rat TAAR1 (Rattus norvegicus (Rat), UniProt Q923Y9)
- Sequence (Q923Y9 whole entry): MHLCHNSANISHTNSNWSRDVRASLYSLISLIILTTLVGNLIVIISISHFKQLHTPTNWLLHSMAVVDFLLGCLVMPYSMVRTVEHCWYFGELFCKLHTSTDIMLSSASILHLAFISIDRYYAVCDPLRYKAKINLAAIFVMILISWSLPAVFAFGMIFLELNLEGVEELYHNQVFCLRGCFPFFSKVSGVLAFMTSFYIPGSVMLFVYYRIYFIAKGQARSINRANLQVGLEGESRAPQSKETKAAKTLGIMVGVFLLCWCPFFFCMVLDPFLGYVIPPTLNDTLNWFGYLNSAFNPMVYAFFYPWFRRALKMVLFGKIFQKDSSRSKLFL
- test: Radioligand binding assay on rat TAAR1
- test_context: read-out: Ki(μM) rat; rat TAAR1, HEK-293 membranes, second value of cell pair mouse/rat
Measured Ki accompanies every entry in the list below.
measurement_kind: Ki (µM)

entry_smiles=CCOc1ccc(C(=O)Nc2ccc(C[C@@H]3NC[C@@H]3F)cc2)cn1 measurement_kind=Ki unit_abbreviation=µM recorded_number=0.0204
entry_smiles=O=C(Nc1ccc(C[C@H]2CCN2)cc1)c1cnc(C(F)(F)F)nc1 measurement_kind=Ki unit_abbreviation=µM recorded_number=0.026
entry_smiles=CC(C)c1cc(C(=O)Nc2ccc(C[C@@H]3NC[C@@H]3F)cc2)n(C)n1 measurement_kind=Ki unit_abbreviation=µM recorded_number=0.126
entry_smiles=O=C(Nc1ccc(SC2CNC2)cc1)Nc1ccc(C(F)(F)F)cc1 measurement_kind=Ki unit_abbreviation=µM recorded_number=0.0081
entry_smiles=O=C(Nc1ccc(CC2(F)CNC2)cc1)Nc1ccc(C(F)(F)F)cc1 measurement_kind=Ki unit_abbreviation=µM recorded_number=0.0016
